# reported ECM AVRG (average KD); entries follow
MEASUREMENT TARGET: Matrix-associated proTGFβ1 (hLTBP1-proTGFβ1 and hLTBP3-proTGFβ1 complexes)
PROTOCOL DESCRIPTION: Octet (BLI); IgG1 from yeast; mean of hLTBP1 and hLTBP3
// units = nM; emit number, no label

Here's what some known entries look like.
{"BINDER": "Ab14 (antibody, IgG1, V domains shown) VH: EVQLLESGGGLVQPGGSLRLSCAASGFTFSAYAMTWVRQAPGKGLEWVSAISGTGGSTYYADSVKGRFTISRDNSKNTLYLQMNSLRAEDTAVYYCARVSSGHWDFDYWGQGTLVTVSS VL: DIQMTQSPSSLSASVGDRVTITCRASQSISSYLNWYQQKPGKAPKLLIYAASSLQSGVPSRFSGSGSGTDFTLTISSLQPEDFATYYCQQVYDPPLTFGGGTKVEIK", "ECM AVRG (average KD) (nM)": 0.341}
{"BINDER": "Ab19 (antibody, V domains shown) VH: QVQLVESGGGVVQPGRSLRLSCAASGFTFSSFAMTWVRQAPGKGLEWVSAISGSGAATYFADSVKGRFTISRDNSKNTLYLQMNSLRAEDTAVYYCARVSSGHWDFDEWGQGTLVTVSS VL: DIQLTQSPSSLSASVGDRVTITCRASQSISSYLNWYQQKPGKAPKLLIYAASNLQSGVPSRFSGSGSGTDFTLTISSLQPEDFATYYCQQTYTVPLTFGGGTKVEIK", "ECM AVRG (average KD) (nM)": 0.172}

As a next step, examine the binder that follows.
Item Ab12 (antibody, V domains shown) VH: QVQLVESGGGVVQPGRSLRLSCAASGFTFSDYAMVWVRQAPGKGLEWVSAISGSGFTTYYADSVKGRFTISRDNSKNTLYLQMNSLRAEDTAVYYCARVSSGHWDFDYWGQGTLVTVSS VL: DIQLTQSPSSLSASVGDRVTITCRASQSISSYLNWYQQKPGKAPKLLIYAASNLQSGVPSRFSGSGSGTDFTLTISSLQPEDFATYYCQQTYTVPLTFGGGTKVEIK has what recorded ECM AVRG (average KD)?
0.17
